Every entry's value here was drawn from ChEMBL document CHEMBL4038344.

Entries annotated with measured Imax
- experimental_target: Cannabinoid receptor 2 (Homo sapiens)
- Sequence (P34972 whole entry): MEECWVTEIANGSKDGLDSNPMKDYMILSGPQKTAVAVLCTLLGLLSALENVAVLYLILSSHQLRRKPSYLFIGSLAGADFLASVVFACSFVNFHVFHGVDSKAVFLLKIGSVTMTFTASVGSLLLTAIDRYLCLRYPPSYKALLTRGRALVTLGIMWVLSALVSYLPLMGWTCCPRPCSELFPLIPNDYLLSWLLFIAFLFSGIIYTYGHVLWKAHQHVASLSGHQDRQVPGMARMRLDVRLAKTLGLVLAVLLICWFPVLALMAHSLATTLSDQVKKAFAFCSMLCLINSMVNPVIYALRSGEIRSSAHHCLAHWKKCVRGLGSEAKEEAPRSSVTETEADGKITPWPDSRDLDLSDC
- test: Antagonist activity at human CB2 receptor expressed in CHO cells co-expressing Galpha16 assessed as inhibition of CP55,940-induced calcium mobilization at 10 uM preincubated for 15 mins followed by CP55,490 addition measured at 1 sec interval for 90 secs by calcium-5 dye based FLIPR assay relative to CP55,940
- Format: functional, cell-based

O=C(Nc1ccc(Cl)cc1)Nc1cccc(-c2ccc(-c3ccccc3)cc2)c1	< 50%
COc1cc(-c2cccc(NC(=O)Nc3ccc(Cl)cc3)c2)ccn1	< 50%

### Prompt May I ask what Imax has been recorded for "CC(C)(C)c1cc(-c2cccc(NC(=O)Nc3ccc(Cl)cc3)c2)cc(C(C)(C)C)c1" ?
### Response < 50%

### Prompt Moving on to "O=C(Nc1ccc(Cl)cc1)Nc1cccc(-c2ccc3occc3c2)c1"
### Response < 50%

### Prompt Moving on to "O=C(Nc1ccc(Cl)cc1)Nc1cccc(-c2ccc3c(c2)Cc2ccccc2-3)c1"
### Response < 50%

---

- experimental_target: Cannabinoid receptor 1 (Mus musculus)
- Sequence (P47746 whole entry): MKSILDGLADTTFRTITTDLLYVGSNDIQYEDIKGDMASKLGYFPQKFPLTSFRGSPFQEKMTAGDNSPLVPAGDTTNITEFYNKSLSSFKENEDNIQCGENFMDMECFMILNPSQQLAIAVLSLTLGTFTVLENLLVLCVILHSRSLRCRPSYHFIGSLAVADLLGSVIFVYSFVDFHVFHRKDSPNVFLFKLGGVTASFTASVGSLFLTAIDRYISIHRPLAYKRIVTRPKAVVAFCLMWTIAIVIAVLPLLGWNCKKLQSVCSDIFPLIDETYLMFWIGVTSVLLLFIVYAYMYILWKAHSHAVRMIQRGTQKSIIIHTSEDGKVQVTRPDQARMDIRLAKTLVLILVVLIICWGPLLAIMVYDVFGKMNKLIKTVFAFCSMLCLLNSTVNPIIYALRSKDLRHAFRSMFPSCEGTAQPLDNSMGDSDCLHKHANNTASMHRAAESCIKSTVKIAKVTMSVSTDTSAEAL
- test: Allosteric modulation of CB1 receptor in CD-1 mouse cerebellar membranes assessed as inhibition of CP55,940-induced [35S]GTPgammaS binding after 60 mins
pIC50: −log10 of the molar value.
measured_metric: pIC50

### Prompt May I ask what pIC50 has been recorded for "O=C(Nc1ccc(Cl)cc1)Nc1cccc(-c2ccc(-c3ccccc3)cc2)c1" ?
### Response < 5.00

---

- experimental_target: Cannabinoid receptor 1 (Homo sapiens, UniProt P21554)
- Sequence (P21554 whole entry): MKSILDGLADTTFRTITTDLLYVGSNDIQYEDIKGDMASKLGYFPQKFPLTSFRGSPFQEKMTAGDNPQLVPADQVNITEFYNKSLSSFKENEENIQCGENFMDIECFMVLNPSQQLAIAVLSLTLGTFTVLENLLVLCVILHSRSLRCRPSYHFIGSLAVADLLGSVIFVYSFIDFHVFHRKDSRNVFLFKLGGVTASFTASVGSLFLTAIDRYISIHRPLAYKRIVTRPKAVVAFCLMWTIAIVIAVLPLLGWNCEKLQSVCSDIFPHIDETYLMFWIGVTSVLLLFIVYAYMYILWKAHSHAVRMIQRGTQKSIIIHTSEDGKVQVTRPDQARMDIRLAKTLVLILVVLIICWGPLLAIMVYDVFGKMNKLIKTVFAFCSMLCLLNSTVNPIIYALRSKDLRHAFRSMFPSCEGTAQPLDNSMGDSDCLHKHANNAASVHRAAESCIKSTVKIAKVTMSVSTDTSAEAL
- test: Agonist activity at human CB1 receptor expressed in CHO cells co-expressing Galpha16 assessed as increase in calcium mobilization at 10 uM measured at 1 sec interval for 90 secs by calcium-5 dye based FLIPR assay relative to CP55,940
- Type: cell-based
- recorded_conditions: 0.025 h
measured_metric: Emax at 10 µM (%)
Field: numeric (%). Do not append units.

These solved cases illustrate the format of a correct answer.
O=C(Nc1ccc(Cl)cc1)Nc1cccc(-c2ccc3ccccc3c2)c1	7
COc1cc(-c2cccc(NC(=O)Nc3ccc(Cl)cc3)c2)ccn1	23
O=C(Nc1ccc(Cl)cc1)Nc1cccc(-c2cncnc2)c1	9
O=C(Nc1ccc(Cl)cc1)Nc1cccc(-c2ccc(F)cc2)c1	9

Note: attention shifts to another entry.
### Prompt May I ask what Emax at 10 µM has been recorded for "Cc1ccnc(-c2cccc(NC(=O)Nc3ccc(Cl)cc3)c2)c1" ?
### Response 3
